remaining at 1 h listing for selected molecules.
Experiment notes: Metabolic stability in human liver microsomes after 1 hr at 37 degC
Assay type: ADME, Microsome
Study conditions: liver microsomes, read-out: Stability
Readout kind: remaining at 1 h (%)

INSERT INTO assay_data (line_notation, observed_value) VALUES
  ('O=[N+]([O-])c1cn2c(n1)OC[C@@H](OCc1ccc(-c3ccc(C(F)(F)F)nc3)s1)C2', 85),
  ('N#Cc1ccc(-c2ccc(CO[C@@H]3COc4nc([N+](=O)[O-])cn4C3)s2)cc1', 85),
  ('O=[N+]([O-])c1cn2c(n1)OC[C@@H](OCc1cnn(-c3ccc(OC(F)(F)F)cc3)c1)C2', 87),
  ('O=[N+]([O-])c1cn2c(n1)OC[C@@H](OCc1cn(-c3ccc(OC(F)(F)F)cc3)nn1)C2', 99),
  ('Cn1nc(-c2ccc(OC(F)(F)F)cc2)cc1CO[C@@H]1COc2nc([N+](=O)[O-])cn2C1', 86);

----------
Test system: Mycobacterium tuberculosis
Experiment notes: Antitubercular effect in Mycobacterium tuberculosis infected BALB/c mouse assessed as CFU reduction at 100 mg/kg, po administered 5 days a week for 3 weeks relative to PA-824
Format: functional
Lab note: anything with fold change (FC) at or over 2 counts as T; the rest go in F.

INSERT INTO measurements (line_notation, target_under_test, discrete_label) VALUES
  ('Cn1nc(-c2ccc(OC(F)(F)F)cc2)cc1CO[C@@H]1COc2nc([N+](=O)[O-])cn2C1', 'Mycobacterium tuberculosis', 'T'),
  ('O=[N+]([O-])c1cn2c(n1)OC[C@@H](OCc1cnn(-c3ccc(OC(F)(F)F)cc3)c1)C2', 'Mycobacterium tuberculosis', 'F'),
  ('O=[N+]([O-])c1cn2c(n1)OC[C@@H](OCc1cn(-c3ccc(OC(F)(F)F)cc3)nn1)C2', 'Mycobacterium tuberculosis', 'F'),
  ('O=[N+]([O-])c1cn2c(n1)OC[C@@H](OCc1ccn(-c3ccc(OC(F)(F)F)cc3)n1)C2', 'Mycobacterium tuberculosis', 'T'),
  ('O=[N+]([O-])c1cn2c(n1)OC[C@@H](OCc1ccc(-c3ccc(C(F)(F)F)nc3)s1)C2', 'Mycobacterium tuberculosis', 'T'),
  ('N#Cc1ccc(-c2ccc(CO[C@@H]3COc4nc([N+](=O)[O-])cn4C3)s2)cc1', 'Mycobacterium tuberculosis', 'F');

----------
System: Mycobacterium tuberculosis
Experiment notes: Antimycobacterial activity against Mycobacterium tuberculosis H37Rv expressing pFCA-luxAB after 10 days by luminescence-based low-oxygen recovery assay
Type: functional
Study conditions: 240 h
Readout kind: MIC (µM)

INSERT INTO assay_data (line_notation, target_under_test, readout_kind, observed_value) VALUES
  ('O=[N+]([O-])c1cn2c(n1)OC[C@@H](OCc1nnc(-c3ccc(F)cc3)o1)C2', 'Mycobacterium tuberculosis', 'MIC', 17),
  ('O=[N+]([O-])c1cn2c(n1)OC[C@@H](OCc1nnn(-c3ccc(F)cc3)n1)C2', 'Mycobacterium tuberculosis', 'MIC', 3.4),
  ('COc1ccc(-c2cc(CO[C@@H]3COc4nc([N+](=O)[O-])cn4C3)on2)cn1', 'Mycobacterium tuberculosis', 'MIC', 4.1),
  ('Cn1c(CO[C@@H]2COc3nc([N+](=O)[O-])cn3C2)cnc1-c1ccc(OC(F)(F)F)cc1', 'Mycobacterium tuberculosis', 'MIC', 7.4),
  ('N#Cc1ccc(-c2ccc(CO[C@@H]3COc4nc([N+](=O)[O-])cn4C3)s2)cc1', 'Mycobacterium tuberculosis', 'MIC', 1.7);

----------
System: Mycobacterium tuberculosis
Experiment notes: Antimycobacterial activity against Mycobacterium tuberculosis H37Rv after 16 to 24 hrs by microplate alamar blue assay
Type: functional
log10 MIC listing for selected molecules.
Readout kind: log10 MIC (log10 of the value in µM)

INSERT INTO assay_data (line_notation, target_under_test, observed_value) VALUES
  ('N#Cc1ccc(-n2cc(CO[C@@H]3COc4nc([N+](=O)[O-])cn4C3)nn2)cc1', 'Mycobacterium tuberculosis', -0.05),
  ('Cn1c(CO[C@@H]2COc3nc([N+](=O)[O-])cn3C2)cnc1-c1ccc(OC(F)(F)F)cc1', 'Mycobacterium tuberculosis', 0.04),
  ('O=[N+]([O-])c1cn2c(n1)OC[C@@H](OCc1nnn(-c3ccc(C(F)(F)F)cc3)n1)C2', 'Mycobacterium tuberculosis', -0.70),
  ('COc1ccc(-c2nc(CO[C@@H]3COc4nc([N+](=O)[O-])cn4C3)cs2)cc1F', 'Mycobacterium tuberculosis', -0.70),
  ('O=[N+]([O-])c1cn2c(n1)OC[C@@H](OCc1cnn(-c3ccc(F)cc3)n1)C2', 'Mycobacterium tuberculosis', -0.77),
  ('O=[N+]([O-])c1cn2c(n1)OC[C@@H](OCc1nnn(-c3ccc(F)cc3)n1)C2', 'Mycobacterium tuberculosis', -0.54),
  ('Cn1c(CO[C@@H]2COc3nc([N+](=O)[O-])cn3C2)cnc1-c1ccc(F)cc1', 'Mycobacterium tuberculosis', 0.28),
  ('O=[N+]([O-])c1cn2c(n1)OC[C@@H](OCc1ccn(-c3ccc(C(F)(F)F)cc3)n1)C2', 'Mycobacterium tuberculosis', -1.35),
  ('COc1ccc(-c2cc(CO[C@@H]3COc4nc([N+](=O)[O-])cn4C3)on2)cc1F', 'Mycobacterium tuberculosis', 0.04),
  ('O=[N+]([O-])c1cn2c(n1)OC[C@@H](OCc1nnc(-c3ccc(F)cc3)o1)C2', 'Mycobacterium tuberculosis', 0.38),
  ('O=[N+]([O-])c1cn2c(n1)OC[C@@H](OCc1ccn(-c3ccc(F)cc3)n1)C2', 'Mycobacterium tuberculosis', -0.96),
  ('O=[N+]([O-])c1cn2c(n1)OC[C@@H](OCc1ccc(-c3ccc(OC(F)F)cc3)s1)C2', 'Mycobacterium tuberculosis', -0.07),
  ('O=[N+]([O-])c1cn2c(n1)OC[C@@H](OCc1ccc(-c3ccc(OC(F)(F)F)cc3)s1)C2', 'Mycobacterium tuberculosis', -0.07),
  ('O=[N+]([O-])c1cn2c(n1)OC[C@@H](OCc1cn(-c3ccc(OC(F)(F)F)cc3)nn1)C2', 'Mycobacterium tuberculosis', -1.12),
  ('Cn1nc(-c2ccc(OC(F)(F)F)cc2)cc1CO[C@@H]1COc2nc([N+](=O)[O-])cn2C1', 'Mycobacterium tuberculosis', -1.22),
  ('O=[N+]([O-])c1cn2c(n1)OC[C@@H](OCc1ccc(-c3cncc(F)c3)s1)C2', 'Mycobacterium tuberculosis', -0.06),
  ('Cn1nc(-c2ccc(F)cc2)cc1CO[C@@H]1COc2nc([N+](=O)[O-])cn2C1', 'Mycobacterium tuberculosis', -0.44),
  ('O=[N+]([O-])c1cn2c(n1)OC[C@@H](OCc1csc(-c3ccc(OC(F)(F)F)cc3)n1)C2', 'Mycobacterium tuberculosis', 0.08),
  ('O=[N+]([O-])c1cn2c(n1)OC[C@@H](OCc1cnn(-c3ccc(F)cc3)c1)C2', 'Mycobacterium tuberculosis', -0.10),
  ('O=[N+]([O-])c1cn2c(n1)OC[C@@H](OCc1cc(-c3ccc(OC(F)(F)F)cc3)no1)C2', 'Mycobacterium tuberculosis', -0.26);

----------
Experiment notes: Solubility in water at pH 7 at 20 degC
Format: physicochemical
Readout kind: solubility (µg/mL)

INSERT INTO results (line_notation, readout_kind, observed_value) VALUES
  ('O=[N+]([O-])c1cn2c(n1)OC[C@@H](OCc1nnc(-c3ccc(F)cc3)o1)C2', 'solubility', 108),
  ('O=[N+]([O-])c1cn2c(n1)OC[C@@H](OCc1ccn(-c3ccc(C(F)(F)F)cc3)n1)C2', 'solubility', 5.4),
  ('O=[N+]([O-])c1cn2c(n1)OC[C@@H](OCc1cccc(-c3ccc(C(F)(F)F)cc3)c1)C2', 'solubility', 2.8),
  ('O=[N+]([O-])c1cn2c(n1)OC[C@@H](OCc1cnn(-c3ccc(C(F)(F)F)cc3)c1)C2', 'solubility', 4.9),
  ('O=[N+]([O-])c1cn2c(n1)OC[C@@H](OCc1cc(-c3ccc(C(F)(F)F)cc3)no1)C2', 'solubility', 0.5),
  ('O=[N+]([O-])c1cn2c(n1)OC[C@@H](OCc1ccc(-c3ccc(C(F)(F)F)nc3)s1)C2', 'solubility', 8.9),
  ('O=[N+]([O-])c1cn2c(n1)OC[C@@H](OCc1cnn(-c3ccc(C(F)(F)F)cc3)n1)C2', 'solubility', 1),
  ('O=[N+]([O-])c1cn2c(n1)OC[C@@H](OCc1cn(-c3ccc(C(F)(F)F)cc3)nn1)C2', 'solubility', 4.6),
  ('Cn1c(CO[C@@H]2COc3nc([N+](=O)[O-])cn3C2)cnc1-c1ccc(C(F)(F)F)cc1', 'solubility', 16),
  ('O=[N+]([O-])c1cn2c(n1)OC[C@@H](OCc1csc(-c3ccc(C(F)(F)F)cc3)n1)C2', 'solubility', 2.8),
  ('O=[N+]([O-])c1cn2c(n1)OC[C@@H](OCc1nnn(-c3ccc(C(F)(F)F)cc3)n1)C2', 'solubility', 5),
  ('O=[N+]([O-])c1cn2c(n1)OC[C@@H](OCc1cccc(-c3ccc(F)cc3)c1)C2', 'solubility', 1.8),
  ('COc1ccc(-c2ccc(CO[C@@H]3COc4nc([N+](=O)[O-])cn4C3)s2)cn1', 'solubility', 2.2),
  ('O=[N+]([O-])c1cn2c(n1)OC[C@@H](OCc1ccc(-c3ccc(C(F)(F)F)cc3)s1)C2', 'solubility', 0.7);
